Test: acute toxicity
Conditions: in vivo, ip; rat, i.p.; read-out: Acute toxicity LD50, i.p.
Consider the cut-off 300 mg/kg. If the recorded LD50 is strictly smaller, the label is Criterion met; if not, the label is Criterion not met.

> print(dat)
                                   compound                cat
1  O=C(CN1CCCCCCC1)Nc1nc(-c2cccnc2)cs1 [Example 19]  Criterion not met

Problem: A record lists O=C(CNC1CC1)Nc1nc(-c2cccnc2)cs1 [Example 2] . Is its LD50 below 300 mg/kg?
Solution: Criterion not met

Problem: Entry to check: O=C(CNCc1ccccc1)Nc1nc(-c2cccnc2)cs1 [Example 8]
Solution: Criterion not met

Problem: Queued: O=C(CN1CCOCC1)Nc1nc(-c2cccnc2)cs1 [Example 18]
Solution: Criterion not met

Problem: Now consider Cc1sc(NC(=O)CNCCO)nc1-c1cccnc1 [Example 32] and answer again.
Solution: Criterion not met

Problem: Can you handle CC[N+](C)(CC)CCOC(=O)C1c2ccccc2Oc2ccccc21 [Methantheline, reference compound] next?
Solution: Criterion met

Problem: Okay, and O=C(CN1CCCCC1)Nc1nc(-c2cccnc2)cs1 [Example 17] ?
Solution: Criterion not met

The origin of these recorded values is patent US3963735A.
